Tested System: Transcription intermediary factor 1-alpha (Homo sapiens)
Sequence (whole entry): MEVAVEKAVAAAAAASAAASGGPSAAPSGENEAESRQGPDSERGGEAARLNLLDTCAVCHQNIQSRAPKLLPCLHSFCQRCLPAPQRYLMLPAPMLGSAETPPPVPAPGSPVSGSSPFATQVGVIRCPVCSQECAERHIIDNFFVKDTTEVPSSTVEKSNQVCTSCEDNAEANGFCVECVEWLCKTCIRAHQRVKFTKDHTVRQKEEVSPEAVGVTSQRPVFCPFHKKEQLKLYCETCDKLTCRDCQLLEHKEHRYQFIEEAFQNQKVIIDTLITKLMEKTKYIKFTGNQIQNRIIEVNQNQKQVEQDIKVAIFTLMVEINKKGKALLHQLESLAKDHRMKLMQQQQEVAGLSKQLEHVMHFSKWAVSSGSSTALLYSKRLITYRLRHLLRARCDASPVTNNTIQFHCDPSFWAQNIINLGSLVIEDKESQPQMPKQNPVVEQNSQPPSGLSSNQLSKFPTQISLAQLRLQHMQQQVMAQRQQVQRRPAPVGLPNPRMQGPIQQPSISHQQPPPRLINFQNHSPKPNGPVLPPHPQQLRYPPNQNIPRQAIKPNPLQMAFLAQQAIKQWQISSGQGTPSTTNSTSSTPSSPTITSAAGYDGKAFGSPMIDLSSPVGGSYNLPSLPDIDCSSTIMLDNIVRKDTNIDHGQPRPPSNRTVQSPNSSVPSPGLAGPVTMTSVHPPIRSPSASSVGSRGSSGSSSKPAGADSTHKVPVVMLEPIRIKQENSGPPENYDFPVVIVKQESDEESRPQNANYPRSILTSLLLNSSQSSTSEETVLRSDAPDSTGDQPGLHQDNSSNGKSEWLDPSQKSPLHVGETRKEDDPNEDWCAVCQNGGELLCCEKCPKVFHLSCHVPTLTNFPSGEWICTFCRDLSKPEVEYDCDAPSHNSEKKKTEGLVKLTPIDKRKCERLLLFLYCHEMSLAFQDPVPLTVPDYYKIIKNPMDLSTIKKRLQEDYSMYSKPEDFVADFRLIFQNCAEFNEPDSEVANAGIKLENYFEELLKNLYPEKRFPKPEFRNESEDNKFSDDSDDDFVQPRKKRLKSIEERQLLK
Condition: Compound concentration 20.0 uM, Protein concentration 2.0 uM, Result type QC Liability
Metric: ΔTm (°C)
Provide only the numeric value, understood in °C.

Query string: Look up ΔTm for this compound: CCO[C@H](COc1ccc(C(F)(F)F)cc1)CSc1ccc(OCC(=O)O)c(C)c1
Result string: -3.26

Query string: Entry to check: Fc1cccc(-n2cnc3c(NCc4nc5c(F)c(F)ccc5[nH]4)nc(N4CCOCC4)nc32)c1
Result string: -0.44

Query string: Entry to check: CCC(C)(C)CC[C@H](NC(=O)N1CCOCC1)C(=O)NC1(C#N)CCN(C)CC1
Result string: 0.53

Query string: Entry to check: CC(=O)c1ccc2c(c1)/C(=C(/Nc1cccc(C#N)c1)c1ccc3c(c1)OCCO3)C(=O)N2
Result string: -2.47

Query string: Entry to check: CNC(=O)c1ccc(C)c(-n2c(C)cc(OCc3ccc(F)cc3F)c(Br)c2=O)c1
Result string: -2.58

Query string: Entry to check: COc1cccc(-c2c(C)c(Cc3c(F)cccc3C(F)(F)F)c3n(c2=O)[C@@H]([C@@H](N)c2ccccc2)CS3)c1F
Result string: 0.28

Query string: Entry to check: Cc1cc(Cn2c(N3CC4(CNC4)C3)nc3cc(Cl)cc(N4CCN(C)CC4)c32)cc(C)c1F
Result string: 0.27

Query string: Entry to check: CNC(=O)c1ccc2c(c1)ncn2-c1ccc(CC(=O)OC(C)(C)C)cc1
Result string: -3.2

Query string: Entry to check: C[C@H](NC(=O)c1cc(Cl)ccc1Oc1ccc(F)cc1)c1ccc(C(=O)O)cc1
Result string: -0.34

---

Tested System: Transcription intermediary factor 1-alpha (Homo sapiens) (UniProt O15164)
Condition: Compound concentration 20.0 uM, Protein concentration 2.0 uM, Result type QC Liability
Metric: ΔTm (°C)
Provide only the numeric value, understood in °C.

Query string: Look up ΔTm for this compound: N#CC[C@H](C1CCCC1)n1cc(-c2ncnc3[nH]ccc23)cn1
Result string: -1.72

Query string: Entry to check: C[S+]([O-])c1ccc(-c2nc(-c3cccc(I)c3)c(-c3ccncc3)[nH]2)cc1 (stereo not drawn)
Result string: -2.56

Query string: Entry to check: Oc1c(-c2cccnc2)cnn1-c1ccccn1
Result string: 0.29

Query string: Entry to check: CC(C)N(C(=O)C1CCOCC1)c1cc(F)c(Oc2ncc(Cn3nccn3)cc2C(F)(F)F)cc1C(=O)O
Result string: 0.13

Query string: Entry to check: Cc1cc(-c2nc(-c3ccc(OC(F)(F)F)cc3)no2)nn1Cc1ccnc(N2CCN(C3CC3)CC2)c1
Result string: 0.28

Query string: Entry to check: Cc1[nH]nc(C(F)(F)F)c1Cc1sc2c(c1C(=O)N1C[C@](C)(O)CO1)c(=O)n(C)c(=O)n2C(C)C
Result string: -0.8

Query string: Entry to check: CC(C)(O)CNC(=O)N1C(=O)N(c2cccc(C(F)(F)F)c2)C2=C(C(=O)CC2)[C@@H]1c1ccc(C#N)cc1
Result string: 0.83

Query string: Entry to check: CCO[C@@H](Cc1ccc(OCCc2ccc(OS(C)(=O)=O)cc2)cc1)C(=O)O
Result string: -3.53

Query string: Entry to check: COc1cc(Oc2nc(-c3ccc(NC(=O)C4CCOC4)cc3)nn3c(C)nc(C)c23)cc(OC)c1OC (stereo not drawn)
Result string: 0.42

Query string: Entry to check: Cc1cc(OCCC(C)(C)O)cc(C)c1-c1ccc(F)c2c1CC[C@H]2Oc1ccc2c(c1)OC[C@H]2CC(=O)O
Result string: -2.29

Query string: Entry to check: CC(C)(O)[C@H]1CC[C@H](Nc2ccc3ncc(-c4cccc(C(F)(F)F)c4)n3n2)CC1
Result string: -1.82

Query string: Entry to check: COC(=O)c1ccc2c(c1)NC(=O)/C2=C(\Nc1ccc(-c2nccn2C)cc1)c1ccccc1
Result string: -3.33

Query string: Entry to check: CCC(C(=O)Nc1ccc(-c2cc3ccccc3s2)c(C(N)=O)c1)c1nccs1 (stereo not drawn)
Result string: 0.44

Query string: Entry to check: CCCCc1oc2ccccc2c1C(=O)c1cc(I)c(OCCN(CC)CC)c(I)c1
Result string: -4.38

Query string: Entry to check: CS(C)(=O)=Nc1ccc(-c2ccc(-c3nc4[nH]c(O[C@@H]5CO[C@H]6[C@@H]5OC[C@H]6O)nc4cc3Cl)cc2)cc1
Result string: 0.39

Query string: Entry to check: COc1cc(C(N)=O)nc(-c2cccc(C#C[C@]3(O)CCN(C)C3=O)c2)c1
Result string: -0.62

Query string: Entry to check: Cc1ccccc1Oc1cc(-n2c(=O)cc(C(F)(F)F)[nH]c2=O)c2ccccc2c1Cl
Result string: -0.87

Query string: Entry to check: COc1ccc2c(O[C@@H]3C[C@H]4C(=O)N[C@]5(C(=O)NS(=O)(=O)C6(C)CC6)CC5/C=C\CCCCC[C@H](NC(=O)c5ccn(C)n5)C(=O)N4C3)cc(OC(C)C)nc2c1C (stereo partly drawn)
Result string: 0.91

---

Tested System: Transcription intermediary factor 1-alpha (Homo sapiens)
Condition: Compound concentration 20.0 uM, Protein concentration 2.0 uM, Result type QC Liability
// boundary case: ΔTm equal to -1 °C maps to N; strictly smaller maps to Y

Query string: Field: below-cutoff. Rule: recorded ΔTm strictly less than -1 °C. Subject: O=C(O)Cc1ccc(CCNS(=O)(=O)c2ccc(Cl)cc2)cc1
Result string: N

Query string: Entry to check: CC[C@@H](C(=O)OC)n1c(=O)c2ccccc2n(Cc2cn(C)c3cccc(C)c23)c1=O
Result string: N

Query string: Entry to check: COc1cc2nc(C)nc(NC3(c4ccccc4)CC3)c2cc1OC
Result string: N

Query string: Entry to check: Cc1ncsc1-c1ccc(CNC(=O)[C@@H]2C[C@@H](O)CN2C(=O)[C@@H](NC(=O)C2(F)CC2)C(C)(C)C)c(OCCOc2ccc(CN3CCN(c4cc(-c5ccccc5O)nnc4N)CC3)cc2)c1
Result string: N

Query string: Entry to check: Nc1ncnc2c1ccn2[C@@H]1O[C@H]([C@@H](O)c2ccccc2)[C@@H](O)[C@H]1O
Result string: Y

Query string: Entry to check: c1ccc2c(-c3coc4cc(-c5ccc(N6CCNCC6)cc5)cnc34)ccnc2c1
Result string: Y

Query string: Entry to check: Cc1cnc(Nc2ccc(C(=O)N3CCN(C)CC3)cc2)nc1N[C@@H]1CCC[C@@H]1C(N)=O
Result string: Y

Query string: Entry to check: N#CN1CC[C@H](C(=O)Nc2nc3c(s2)CN(C(=O)CN=[N+]=[N-])CC3)C1
Result string: Y

Query string: Entry to check: CCOc1ccc(S(=O)(=O)Nc2ccc(Cl)cc2C#Cc2cnc(C(=O)O)cc2OC)c2ncccc12
Result string: N

Query string: Entry to check: N=C(N)Nc1cc(C2CCNCC2)cc(C(F)(F)F)c1
Result string: N

Query string: Entry to check: CN1CCc2cc(Nc3ncc(C(F)(F)F)c(NCc4cc[nH]n4)n3)ccc2C1
Result string: Y

Query string: Entry to check: C[C@@H]1CC(=O)N(C2CC2)N=C1c1ccc(NC(=O)N2Cc3ccncc3C2)cc1
Result string: N

Query string: Entry to check: CNC(=O)COc1cc2cc(Nc3nc(N4CCC(C(=O)N(C)C)CC4)ncc3Cl)cc(OC)c2n(C)c1=O
Result string: N

Query string: Entry to check: O=C(Nc1ccnc(NC(=O)C2CC2)c1)c1c(Cl)cccc1Cl
Result string: Y

Query string: Entry to check: CC(=O)N1CCC(c2ccc(C(=O)NC3=NCCN3)cc2C(F)(F)F)CC1
Result string: N

Query string: Entry to check: CN(C)[C@H]1C[C@H](n2cnc(-c3ccc(F)cn3)c2-c2ccnc3[nH]ccc23)C1
Result string: Y

Query string: Entry to check: COc1cc(-c2nn([C@H]3CC[C@H](N4CCN(C(C)=O)CC4)CC3)c3ncnc(N)c23)ccc1NC(=O)c1cc2ccccc2n1C
Result string: N

Query string: Entry to check: Cc1cc2c(cc(C(=O)N[C@H](CO)c3ccc(S(=O)(=O)CC(=O)O)cc3)n2C)c(Cl)c1Cl
Result string: N

Query string: Entry to check: CN[C@@H]1CC[C@@H](c2ccc(Cl)c(Cl)c2)c2ccccc21
Result string: Y

Sourced from ChEMBL document CHEMBL5308504
